As shown below, each of these binders has a reported Kd value.
Biological target: T1, TAZ2 domain (residues 1764–1855) of wild-type mouse CBP (mouse, UniProt P45481 1764-1855)
T1 sequence (looked up): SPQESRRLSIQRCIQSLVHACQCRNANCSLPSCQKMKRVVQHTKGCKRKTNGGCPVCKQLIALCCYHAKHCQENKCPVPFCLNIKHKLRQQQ
Test: NMR titration
Where no end group is shown, it is not given here.
State the answer as a number, implicitly in µM.

> print(dat)
                                     binder   u  data.value
1  MHGDTPTLHEYMLDLQPE-NH2 [E7 CR1 peptide (residues 1–18)]  µM          69

input: Provide only the value of recorded Kd for ETTDLYCYEQLNDSSEEEDE [E7 CR2 peptide (residues 18–37)]
output: 3.4
